Test system: Plasmodium berghei
method description: Luciferase/luciferin-expressing antifolate-resistant parasites were used to infect a culture of HepG2 cells that were pre-incubated with compounds. Infected hepatocytes emit light due to the luciferase reaction. Assay results are presented as the percent inhibition of light emission compared to control. […]
Format: functional
measurement conditions: sporozoite, PBLUC_HILL_SLOPE 1.88, PBLUC_R_SQUARED 0.548, read-out: LUCIFERASE INFECTION ASSAY - IC50
measured metric: IC50 (µM)
Numbers only, in µM.

Ask: Note IC50 for the compound shown: `O=C1Nc2ccc([N+](=O)[O-])cc2/C1=N\NC(=O)c1cc2ccccc2cc1O`
Result: 4.86

----------
Test system: Plasmodium berghei
method description: Luciferase/luciferin-expressing antifolate-resistant parasites were used to infect a culture of HepG2 cells that were pre-incubated with compounds. Infected hepatocytes emit light due to the luciferase reaction. Assay results are presented as the percent inhibition of light emission compared to control. […]
Assay type: functional
measurement conditions: sporozoite, HEPG2TOX_HILL_SLOPE 8.54, HEPG2TOX_R_SQUARED 0.649, PBLUC_HILL_SLOPE 17.9, PBLUC_R_SQUARED 0.599, read-out: LUCIFERASE INFECTION ASSAY - IC50
measured metric: pIC50
Numbers only, as −log10 of the molar value.

Ask: Note pIC50 for the molecule shown: `C[n+]1c(-c2ccccc2)cc(CCCCc2cc(-c3ccccc3)[n+](C)c(-c3ccccc3)c2)cc1-c1ccccc1`
Result: 5.02

----------
Test system: Plasmodium berghei
method description: Luciferase/luciferin-expressing antifolate-resistant parasites were used to infect a culture of HepG2 cells that were pre-incubated with compounds. Infected hepatocytes emit light due to the luciferase reaction. Assay results are presented as the percent inhibition of light emission compared to control. […]
Format: functional
measurement conditions: sporozoite, PBLUC_HILL_SLOPE 13.3, PBLUC_R_SQUARED 0.718, read-out: LUCIFERASE INFECTION ASSAY - IC50
measured metric: IC50 (µM)
Answers are plain numbers, in µM.

Ask: Note IC50 for the compound shown: Cc1cc2c(cc1C)C(NC(C)c1ccccc1)=NC(C)(C)C2 (stereo unspecified)
Result: 3.64

----------
System: Plasmodium berghei
method description: Luciferase/luciferin-expressing antifolate-resistant parasites were used to infect a culture of HepG2 cells that were pre-incubated with compounds. Infected hepatocytes emit light due to the luciferase reaction. Assay results are presented as the percent inhibition of light emission compared to control. […]
Type: functional
measurement conditions: sporozoite, read-out: LUCIFERASE INFECTION ASSAY - IC50
pIC50: −log10 of the molar value.
measured metric: pIC50

// known answers, use as guide
O=C(c1ccco1)N(Cc1nccs1)c1ccc(-c2ccccc2)cc1 : < 5.04
CSc1ncc2c(n1)CC(C)(C)C/C2=N\OC(=O)c1cccc(C(F)(F)F)c1 : < 5.09
c1ccc2cc(-c3cnc4sc(NCc5ccncc5)nn34)ccc2c1 : < 5.03
CC(=O)Nc1ccc(/C=C2\S/C(=N\c3cccc4ccccc34)N(Cc3ccccc3F)C2=O)cc1 : 5.19

Give pIC50 for each listed item.
1. Cc1nn(-c2ccccc2)c(Cl)c1C(=O)N1CCN(C(c2ccccc2)c2ccccc2)CC1
2. Cc1nccn1Cc1cccc(CNC(=O)/C=C/c2cccc(Cl)c2Cl)c1
3. Cc1ccc2nc(NC(=O)c3cccc(Cl)c3Cl)c(C(=O)NC3CCCC3)n2c1

Result:
1. < 5.00
2. < 5.00
3. < 5.12
